Species on record: Rattus norvegicus
assay-text: Fourfod increase in lever pressing in punished rats, ED50 value reported as log1/C
Format: functional
Recorded Log 1/C, one value per entry.

compound: O=C1C(O)N=C(c2ccccc2F)c2cc(Cl)ccc2N1CCO (stereo not given)
Log 1/C: 1.648

compound: CN1C(=O)C(O)N=C(c2ccccc2Cl)c2cc(Cl)ccc21 (stereo not given)
Log 1/C: 2.658

compound: CN1C(=O)CN=C(c2ccccc2)c2cc(Cl)ccc21
Log 1/C: 1.876

compound: CN1C(=O)CN=C(c2ccccc2Cl)c2cc(Cl)ccc21
Log 1/C: 2.824

compound: CN1C(=O)C(O)N=C(c2ccccc2)c2cc(Cl)ccc21 (stereo not given)
Log 1/C: 1.883
